Data origin: ChEMBL document CHEMBL1201862

Study Target: Luciferin 4-monooxygenase (Photinus pyralis)
Sequence (P08659 whole entry): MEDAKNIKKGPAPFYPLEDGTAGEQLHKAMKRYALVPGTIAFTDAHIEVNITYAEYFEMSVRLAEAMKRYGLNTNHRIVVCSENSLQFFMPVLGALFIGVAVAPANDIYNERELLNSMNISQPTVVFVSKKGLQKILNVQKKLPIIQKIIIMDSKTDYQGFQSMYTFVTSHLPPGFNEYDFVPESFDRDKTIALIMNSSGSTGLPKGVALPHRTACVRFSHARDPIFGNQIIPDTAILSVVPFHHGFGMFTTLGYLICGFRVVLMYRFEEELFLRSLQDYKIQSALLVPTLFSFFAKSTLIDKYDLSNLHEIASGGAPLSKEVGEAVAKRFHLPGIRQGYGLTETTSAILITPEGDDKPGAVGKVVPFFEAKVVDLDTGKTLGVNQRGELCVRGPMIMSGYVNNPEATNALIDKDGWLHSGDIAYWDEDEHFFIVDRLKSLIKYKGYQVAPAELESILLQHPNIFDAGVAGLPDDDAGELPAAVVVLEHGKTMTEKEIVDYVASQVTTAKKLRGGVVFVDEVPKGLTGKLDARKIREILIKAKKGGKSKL
Test Protocol: firefly luciferase enzyme inhibitors, dose response, biochemical, luminescence (AID 1891)
Calls of active or inactive are those of the source.
Measurement Label: EC50

Look over these answered cases.
[[record]]
molecule = "Cc1cccc(/N=C/c2sc3ccccc3c2O)n1"
result = "1.02 µM (active)"

[[record]]
molecule = "O=C(NCCCN1CCOCC1)C1(c2ccccc2)CCCC1"
result = "> 112 µM (not active)"

[[record]]
molecule = "O=C(NC1CCCCC1)N1CCC(c2nc(-c3ccc(S(=O)(=O)N4CCCC4)cc3)no2)CC1"
result = "> 112 µM (not active)"

[[record]]
molecule = "Cc1ccccc1C(=O)NC(CC(C)C)C(=O)Nc1ccc(S(N)(=O)=O)cc1 (centres undefined)"
result = "> 112 µM (not active)"

[[record]]
molecule = "COc1ccc(/C=N/N=C(\\N)c2nonc2N)cc1"
result = "3.82 µM (active)"

[[record]]
molecule = "O=C(O)c1ccc(N/N=C/c2ccc3nccnc3c2)cc1"
result = "3.43 µM (active)"

[[record]]
molecule = "O=S(=O)(Nc1ccc(-c2ccc3nncn3n2)cc1)c1ccccc1Cl"
result = "> 112 µM (not active)"

[[record]]
molecule = "Cc1cccnc1CN1CCN(C(=O)c2cc(COc3ccc4ncccc4c3)on2)CC1"
result = "> 112 µM (not active)"


Per the record, CSc1nc2c(c(-c3ccc(O)cc3)c1C#N)CCC2 has EC50 of > 112 µM (not active)

Per the record, Clc1ccc(CNc2ccc3nnc(-c4ccccc4)n3n2)cc1 has EC50 of > 112 µM (not active)

Per the record, O=C(c1ccc(F)cc1)c1cc2ccc(O)cc2oc1=O has EC50 of 0.731 µM (active)

Per the record, Cn1c(-c2ccco2)nc2cc3ccccc3cc21 has EC50 of 0.695 µM (active)

Per the record, CC(C)(C)NC(=O)COc1ccc(CNc2ccc3[nH]c(O)nc3c2)cc1 has EC50 of > 112 µM (not active)

Per the record, Cc1ccc(-c2cc(C(=O)NCc3ccco3)c3ccccc3n2)o1 has EC50 of 36.8 µM (active)

---

Tested on: H4
Test Protocol: Luminescence Cell-Based Dose Response HTS to Identify Activators of 5'UTR Stem-Loop Driven Prion Protein mRNA Translation in H4 Neuroglioblastoma Cells. [Related pubchem assays: 1829 (Project Summary), 1814 (Primary HTS)]
Format: functional
Condition Label: Homo sapiens
Active and inactive are the calls of the source.
Measurement Label: EC50

Look over these answered cases.
[[record]]
molecule = "CCOC(=O)/C(C#N)=C1/C=CN(c2ccc(C)cc2)C=N1"
study_target = "H4"
result = "14.8 µM (active)"

[[record]]
molecule = "O=c1c2cc(-c3ccccc3)sc2ncn1-n1cccc1"
study_target = "H4"
result = "15 µM (active)"


Per the record, Cc1cccc(-n2ccnc2SCC(=O)Nc2nccs2)c1 has EC50 of > 120 µM (not active)

Per the record, Cc1nn(-c2ccccc2)c2c1C(O)n1c(nc3ccccc31)S2 (stereo not given) has EC50 of > 120 µM (not active)

Per the record, O=C(COc1cccc2cccnc12)Nc1ccccc1 has EC50 of 15 µM (active)

---

Study Target: UniProt:P35363
Sequence (P35363 whole entry): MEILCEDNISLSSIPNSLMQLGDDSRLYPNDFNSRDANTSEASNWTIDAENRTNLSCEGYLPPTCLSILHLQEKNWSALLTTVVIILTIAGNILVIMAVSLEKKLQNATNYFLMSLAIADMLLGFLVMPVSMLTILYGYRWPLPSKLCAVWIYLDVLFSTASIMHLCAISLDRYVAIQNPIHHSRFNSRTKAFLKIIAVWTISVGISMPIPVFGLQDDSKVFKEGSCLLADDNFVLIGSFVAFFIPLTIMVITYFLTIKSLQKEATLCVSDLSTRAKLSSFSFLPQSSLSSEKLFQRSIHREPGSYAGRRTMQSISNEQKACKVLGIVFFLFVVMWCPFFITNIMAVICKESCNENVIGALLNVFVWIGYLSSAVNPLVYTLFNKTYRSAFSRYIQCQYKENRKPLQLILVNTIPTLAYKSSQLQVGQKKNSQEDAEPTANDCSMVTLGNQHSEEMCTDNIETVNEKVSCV
Assay type: functional, cell-based
Active and inactive are the calls of the source.
Property: EC50; scope: individual molecules

[[record]]
molecule = "Cc1ccc(Nc2nc(N)nc(CN3CCN(c4ccccc4)CC3)n2)cc1Cl"
measurement_label = "EC50"
result = "76100 nM (inactive)"

[[record]]
molecule = "Fc1ccccc1CN1CCN(c2ncccn2)CC1"
measurement_label = "EC50"
result = "1260 nM (active)"

[[record]]
molecule = "COc1ccc(CC2(CO)CCN(C(C)COc3ccccc3)CC2)cc1 (centres undefined)"
measurement_label = "EC50"
result = "115 nM (active)"


Next molecule, EC50 to be filled in.
Per the record, COc1ccc(NC(=O)CSc2ccc(-c3ccccn3)nn2)cc1OC has EC50 of 589 nM (active)
